Assayed Target: MAGI2_2, Q86UL8
Sequence (Q86UL8 410-522): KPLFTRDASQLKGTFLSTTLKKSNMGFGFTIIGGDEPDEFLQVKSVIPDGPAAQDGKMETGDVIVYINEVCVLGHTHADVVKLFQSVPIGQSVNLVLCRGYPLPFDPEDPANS
Protocol: holdup assay
Parameters: key: below the threshold = too weak to quantify, mostly under pKd 3.1 to 4
Condition Set: plain residues with an end cap or a label only (N-terminal biotin on a linker: ahx)
Assay Endpoint: pKd
One number for each entry.

Request: Please report the recorded pKd for QPRTWLQSPV [RTKN, Q9BST9] .
Result: 4.39

Items follow; give pKd for each.
1. TQKFRASTAL [FRMPD1, Q5SYB0]
2. HTHSYIETHV [CNKSR2, Q8WXI2]
3. QDEKVKESYV [ABCA1, O95477]

Result:
[4.18, 4.37, 4.52]
